target: PI3Kα (Homo sapiens, UniProt P42336)
Sequence (P42336 whole entry): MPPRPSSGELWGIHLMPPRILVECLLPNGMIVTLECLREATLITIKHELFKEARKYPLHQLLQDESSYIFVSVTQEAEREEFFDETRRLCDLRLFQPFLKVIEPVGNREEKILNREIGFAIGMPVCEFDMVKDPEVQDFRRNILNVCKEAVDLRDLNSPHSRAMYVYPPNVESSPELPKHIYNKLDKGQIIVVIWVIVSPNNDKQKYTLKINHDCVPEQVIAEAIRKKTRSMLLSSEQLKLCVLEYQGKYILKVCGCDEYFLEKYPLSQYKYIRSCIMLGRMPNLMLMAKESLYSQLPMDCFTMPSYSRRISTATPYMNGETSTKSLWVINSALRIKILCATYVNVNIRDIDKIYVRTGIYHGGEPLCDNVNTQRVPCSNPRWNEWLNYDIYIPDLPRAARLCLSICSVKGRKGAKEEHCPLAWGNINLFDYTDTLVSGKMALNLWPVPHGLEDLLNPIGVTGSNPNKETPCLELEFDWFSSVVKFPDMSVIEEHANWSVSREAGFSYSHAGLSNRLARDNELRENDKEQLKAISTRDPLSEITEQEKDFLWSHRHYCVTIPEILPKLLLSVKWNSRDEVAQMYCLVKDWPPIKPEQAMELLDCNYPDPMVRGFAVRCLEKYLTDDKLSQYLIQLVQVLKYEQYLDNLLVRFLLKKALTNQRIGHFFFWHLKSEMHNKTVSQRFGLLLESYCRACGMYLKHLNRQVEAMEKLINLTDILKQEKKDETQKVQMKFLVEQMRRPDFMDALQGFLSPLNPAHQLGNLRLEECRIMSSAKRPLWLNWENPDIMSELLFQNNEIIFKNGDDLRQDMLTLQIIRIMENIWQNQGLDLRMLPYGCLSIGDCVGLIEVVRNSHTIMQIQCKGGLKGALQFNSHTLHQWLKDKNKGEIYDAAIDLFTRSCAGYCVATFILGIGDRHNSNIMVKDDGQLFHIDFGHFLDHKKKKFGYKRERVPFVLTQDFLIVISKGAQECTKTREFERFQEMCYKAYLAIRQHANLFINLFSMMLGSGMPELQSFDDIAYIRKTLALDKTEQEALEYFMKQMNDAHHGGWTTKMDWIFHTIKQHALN
Sequence (P27986 whole entry partner): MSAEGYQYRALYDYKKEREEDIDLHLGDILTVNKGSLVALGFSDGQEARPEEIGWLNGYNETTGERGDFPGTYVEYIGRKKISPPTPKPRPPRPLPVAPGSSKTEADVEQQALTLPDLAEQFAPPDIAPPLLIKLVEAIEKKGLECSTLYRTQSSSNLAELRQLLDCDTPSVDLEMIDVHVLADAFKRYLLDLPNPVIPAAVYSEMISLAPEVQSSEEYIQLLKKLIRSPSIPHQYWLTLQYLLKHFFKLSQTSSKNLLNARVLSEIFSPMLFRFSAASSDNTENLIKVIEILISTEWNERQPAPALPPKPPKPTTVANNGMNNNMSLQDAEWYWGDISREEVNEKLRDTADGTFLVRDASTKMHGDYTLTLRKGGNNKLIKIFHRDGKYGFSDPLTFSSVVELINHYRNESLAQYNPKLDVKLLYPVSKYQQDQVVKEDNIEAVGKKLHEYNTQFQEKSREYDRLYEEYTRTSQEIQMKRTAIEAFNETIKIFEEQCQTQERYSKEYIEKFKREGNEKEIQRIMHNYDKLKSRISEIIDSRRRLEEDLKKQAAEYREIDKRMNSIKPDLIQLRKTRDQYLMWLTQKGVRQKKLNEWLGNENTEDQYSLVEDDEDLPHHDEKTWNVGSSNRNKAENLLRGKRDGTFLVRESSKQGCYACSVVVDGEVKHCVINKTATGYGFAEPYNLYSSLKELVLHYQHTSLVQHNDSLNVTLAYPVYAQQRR
pIC50: −log10 of the molar value.

structure.string: COc1ncc(-c2ccc3ncc(OCCN(C)C)c(=O)n3c2)cc1NS(=O)(=O)c1ccc(F)cc1Cl
test.system: PI3Kα (Homo sapiens, UniProt P42336)
pIC50: 9.22

----------
biological target: mTOR (Homo sapiens, UniProt P42345)
Sequence (P42345 1360-2549): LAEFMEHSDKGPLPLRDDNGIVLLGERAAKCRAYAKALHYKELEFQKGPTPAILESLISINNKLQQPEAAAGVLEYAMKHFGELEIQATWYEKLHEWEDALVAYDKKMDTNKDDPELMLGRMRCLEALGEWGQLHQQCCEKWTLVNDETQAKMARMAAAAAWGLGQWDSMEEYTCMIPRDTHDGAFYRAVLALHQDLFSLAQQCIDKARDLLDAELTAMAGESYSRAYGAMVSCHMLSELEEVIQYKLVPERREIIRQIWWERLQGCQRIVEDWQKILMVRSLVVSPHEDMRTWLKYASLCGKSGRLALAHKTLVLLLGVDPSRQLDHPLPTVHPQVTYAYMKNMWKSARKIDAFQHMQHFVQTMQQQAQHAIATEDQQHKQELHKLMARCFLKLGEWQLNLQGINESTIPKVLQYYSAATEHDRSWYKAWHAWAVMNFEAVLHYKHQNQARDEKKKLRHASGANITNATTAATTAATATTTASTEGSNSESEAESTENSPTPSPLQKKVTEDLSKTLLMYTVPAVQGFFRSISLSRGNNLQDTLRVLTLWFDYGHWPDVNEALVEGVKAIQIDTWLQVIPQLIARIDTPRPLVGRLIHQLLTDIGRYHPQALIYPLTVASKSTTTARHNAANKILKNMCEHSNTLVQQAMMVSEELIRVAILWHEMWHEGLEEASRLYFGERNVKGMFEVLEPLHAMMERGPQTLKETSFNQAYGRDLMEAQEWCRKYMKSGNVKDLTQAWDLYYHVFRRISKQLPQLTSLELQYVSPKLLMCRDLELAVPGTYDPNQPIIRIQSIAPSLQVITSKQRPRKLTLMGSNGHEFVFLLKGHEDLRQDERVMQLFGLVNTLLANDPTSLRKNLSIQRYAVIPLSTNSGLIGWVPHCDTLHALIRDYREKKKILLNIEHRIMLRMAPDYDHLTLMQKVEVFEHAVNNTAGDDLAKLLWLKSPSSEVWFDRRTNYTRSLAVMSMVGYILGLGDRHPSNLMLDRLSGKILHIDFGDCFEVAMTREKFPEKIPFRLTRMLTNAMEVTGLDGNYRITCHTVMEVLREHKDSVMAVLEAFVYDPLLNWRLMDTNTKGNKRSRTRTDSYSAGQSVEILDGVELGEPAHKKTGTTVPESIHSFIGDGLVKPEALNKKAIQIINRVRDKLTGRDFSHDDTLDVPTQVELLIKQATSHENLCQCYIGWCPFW

compound: COc1ncc(-c2ccc3ncc(OCCN(C)C)c(=O)n3c2)cc1NS(=O)(=O)c1ccc(F)cc1Cl [Compound 1]
IC50: > 200 nM
